The reported numbers originate from PubChem BioAssay (NCI).

Entries and their measured TGI follow.
- Test system: MCF7 breast
- measurementNotes: NCI tumour cell line growth inhibition, 48 h

Solved cases (3 shown):
CC1(C)Cc2c(sc3[nH]c(=S)[nH]c(=S)c23)CS1	> 100 µM
C=C1CC(OC)(C(OC)C(=O)N[C@H]2OCO[C@H]3C2O[C@H](C[C@@H](COC)OC)C(C)(C)C3OC)O[C@H](C)[C@@H]1C (stereo not given in full)	> 47 µM
C[N+](C)(C)CC(=O)N/N=C(\Cc1nc2ccc([N+](=O)[O-])cc2[nH]c1=O)C(=O)Nc1nc2ccc([N+](=O)[O-])cc2s1	> 100 µM

input: Please provide the recorded TGI for C=C(C)C1CC[C@@](C)(O)[C@H](C#N)C1 (stereo not given in full) , tested on MCF7 breast.
output: > 100 µM

input: Please provide the recorded TGI for O=C(O)CCC(NC(=O)c1ccc(Nc2cnc3cc(C(F)(F)F)ccc3n2)cc1)C(=O)O (stereo not given) , tested on MCF7 breast.
output: > 100 µM

* * *

- Test system: HOP-62 NSCLC
- measurementNotes: NCI tumour cell line growth inhibition, 48 h
Entries and their measured TGI follow.

COc1ccc2c(c1)CCc1c-2[nH]c2cc3c(cc2c1=O)OCO3	> 100 µM
O=c1nc2sc3ccccc3c(=O)n2[nH]1	> 100 µM

input: Please provide the recorded TGI for COc1cccc(NC(=O)CSc2nnc(Cc3ccccc3)o2)c1 , tested on HOP-62 NSCLC.
output: > 100 µM

input: Please provide the recorded TGI for C=C1C(=O)O[C@H]2[C@H]1CC/C(COC(=O)c1cccnc1N)=C\CC[C@@]1(C)O[C@@H]21 , tested on HOP-62 NSCLC.
output: 18.6 µM

* * *

- Tested on: LOX IMVI melanoma
- measurementNotes: NCI tumour cell line growth inhibition, 48 h; in the data active = GI50 below about 0.43 µM; inactive = the rest
Choose the fitting class; nothing outside 1 for active, 0 for inactive is accepted.

The following compounds have reported results that may help.
CCc1nc(C)cn1C(=O)OCc1nc2nc(Cl)nc(N3CCOCC3)c2[nH]1	0
C#C[C@@]1(O)[C@@H](CO)O[C@@H](n2cc(Br)c3c(Cl)ccnc32)[C@@H]1O	1
COc1cccc2c1C(=O)c1c(O)c3c(c(O)c1C2=O)C[C@@](O)(/C(CO)=N/NC(=O)CCCCCN1C(=O)C=CC1=O)C[C@@H]3O[C@H]1C[C@H](N)[C@H](O)[C@H](C)O1	1
CN1CCN(CCCNC(=O)c2c3c(n4ccccc24)C(=O)c2ncccc2C3=O)CC1	0
COc1cccc2c1C(=O)c1c(O)c3c(c(O)c1C2=O)C[C@@](O)(C(=O)CO)CC3OC1CC(N)C(OC2CCCCO2)C(C)O1 (stereo partly drawn)	1
Nc1ccccc1C#C/C=C\C#Cc1ccccc1C#CCO	0
CN(C)c1ccc(/C=C(\C#N)c2cc3ccccc3[nH]2)cc1	0

Let us examine a further case.
input: What call does the record list for O=C1/C(=C\c2ccc(F)cc2)CN(C(=O)c2ccccc2F)C/C1=C\c1ccc(F)cc1 ?
output: 1

* * *

Entries and their measured TGI follow.
- Test system: M14 melanoma
- measurementNotes: NCI tumour cell line growth inhibition, 48 h

C=CCCCCCCCCCP(=O)(c1ccccc1)c1ccc2c(c1)OCCOCCOCCOCCO2 (stereo not drawn)	> 100 µM
COC(=O)C1(C(=O)OC)N=C(C)OC1c1ccccc1O (stereo not drawn)	> 100 µM

Turning now to a further molecule:
input: Please provide the recorded TGI for COc1ccc(Cc2cc(Cc3ccc(OC)cc3)cc(Cc3ccc(OC)cc3)c2)cc1 , tested on M14 melanoma.
output: > 100 µM
